molecular target: beta-lactamase class D OXA-48 (Klebsiella pneumoniae, UniProt Q6XEC0); type: biochemical
Sequence (Q6XEC0 23-265 limits assumed): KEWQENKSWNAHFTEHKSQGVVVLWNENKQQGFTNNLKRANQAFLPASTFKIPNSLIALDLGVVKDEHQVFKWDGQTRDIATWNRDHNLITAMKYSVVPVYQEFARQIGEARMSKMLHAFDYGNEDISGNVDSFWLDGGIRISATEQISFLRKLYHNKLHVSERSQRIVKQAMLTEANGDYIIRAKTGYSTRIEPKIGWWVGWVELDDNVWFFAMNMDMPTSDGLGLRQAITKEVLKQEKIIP
Numbered stars: 1 amine (or outer) side, 2 acyl side, 3 side chain; on linkers, the order of the positions; unused ones are H or OH. Bridge positions count the residues as written; N and C are the ends. Square brackets hold non-standard residues; d marks the D form. Peptide text beside a SMILES is read from it. * marks the point of attachment. pTerphenylCO(4''-OnC5H11) = CCCCCOc1ccc(-c2ccc(-c3ccc(C(=O)*)cc3)cc2)cc1; Orn(4R-OH,5R-OH) = O=C([C@H](C[C@@H](O)[C@@H](O)N[*:3])N[*:1])[*:2]; hTyr(3S-OH,4S-OH) = N[C@H](C(=O)O)[C@H](O)[C@@H](O)c1ccc(O)cc1; Pro(3S-OH,4S-Me) = C[C@H]1CN[C@H](C(=O)O)[C@H]1O; Hyp = O=C(O)[C@@H]1C[C@@H](O)CN1
reportedMetric: [meropenem] (mg/L) Replicates 1
Express your answer in mg/L, writing the number without its unit.

Some entries whose results are on file:
1. CCCCCOc1ccc(-c2ccc(-c3ccc(C(=O)N[C@H]4C[C@@H](O)[C@@H](O)NC(=O)[C@@H]5[C@@H](O)[C@@H](C)CN5C(=O)[C@H]([C@@H](C)O)NC(=O)[C@H]([C@H](O)[C@@H](O)c5ccc(O)cc5)NC(=O)[C@@H]5C[C@@H](O)CN5C(=O)[C@H]([C@@H](C)O)NC4=O)cc3)cc2)cc1 [Anidulafungin] ({pTerphenylCO(4''-OnC5H11)}-[Orn(4R-OH,5R-OH)]T[Hyp][hTyr(3S-OH,4S-OH)]T[Pro(3S-OH,4S-Me)]; lactam 1-C) ... 0.09
2. COc1ccnc(C[S+]([O-])c2nc3cc(OC(F)F)ccc3[nH]2)c1OC (stereo not shown) ... 0.02

Print beta-lactamase class D OXA-48 (Klebsiella pneumoniae, UniProt Q6XEC0) [meropenem] (mg/L) Replicates 1 for C=CC[C@@H]1/C=C(\C)C[C@H](C)C[C@H](OC)[C@H]2O[C@@](O)(C(=O)C(=O)N3CCCC[C@H]3C(=O)O[C@H](/C(C)=C/[C@@H]3CC[C@@H](O)[C@H](OC)C3)[C@H](C)[C@@H](O)CC1=O)[C@H](C)C[C@@H]2OC.O . -0.07

Print beta-lactamase class D OXA-48 (Klebsiella pneumoniae, UniProt Q6XEC0) [meropenem] (mg/L) Replicates 1 for O=C1NC(=O)C(c2ccccc2)(c2ccccc2)N1 . -0.15

Print beta-lactamase class D OXA-48 (Klebsiella pneumoniae, UniProt Q6XEC0) [meropenem] (mg/L) Replicates 1 for Cc1ncc2n1-c1ccc(Cl)cc1C(c1ccccc1F)=NC2 . -0.07

Print beta-lactamase class D OXA-48 (Klebsiella pneumoniae, UniProt Q6XEC0) [meropenem] (mg/L) Replicates 1 for CC[C@H](C)C[C@H](C)CCCCCCCCC(=O)N[C@H]1C[C@@H](O)[C@@H](NCCN)NC(=O)[C@@H]2[C@@H](O)CCN2C(=O)[C@H]([C@H](O)CCN)NC(=O)[C@H]([C@H](O)[C@@H](O)c2ccc(O)cc2)NC(=O)[C@@H]2C[C@@H](O)CN2C(=O)[C@H]([C@@H](C)O)NC1=O . 0.03

Print beta-lactamase class D OXA-48 (Klebsiella pneumoniae, UniProt Q6XEC0) [meropenem] (mg/L) Replicates 1 for CCCC(CCC)C(=O)[O-].[Na+] . -0.10
